Assay: Inhibition of cell proliferation of human DLD-1 cells expressing BRCA2-/- incubated for 7 days by Sytox green dye based analysis
Assay type: functional
Settings: DLD-1, 168 h
measuredMetric: IC50 (nM)
Provide the reading as a plain figure in nM.

structuresmilesstring=CCc1nc2ccc(CN3CCN(c4ccc(C(=O)NC)nc4F)CC3)c(C)c2[nH]c1=O observed=12
structuresmilesstring=CCc1nc2ccc(CN3CCN(c4ccc(F)nc4C)CC3)cc2[nH]c1=O observed=10
structuresmilesstring=CCc1nc2ccc(CN3CCN(c4ccc(C(=O)NC)nc4F)CC3)c(Cl)c2[nH]c1=O observed=17

# input Can you look up the measured IC50 of CCc1cc2cnc(CN3CCN(c4ccc(C(=O)NC)nc4)CC3)cc2[nH]c1=O for me?
# output 3

# input compound: CCc1cc2ccc(CN3CCN(c4ccc(C(=O)NC)nc4C)CC3)cc2[nH]c1=O ; wanted: its IC50
# output 2

# input Query: IC50; subject: CNC(=O)c1ccc(N2CCN(Cc3ccc4nc(C)c(=O)[nH]c4c3F)CC2)c(F)n1
# output 16

# input So what's the measured IC50 for this one? CCc1nc2ccc(CN3CCN(c4ccc(F)nc4)CC3)cc2[nH]c1=O
# output 66

# input Dear colleague, I am looking for the recorded IC50 of the following compound: CCc1cc2ccc(CN3CCN(c4ccc(C(=O)NC)nc4)CC3)cc2[nH]c1=O
# output 4

# input Reported IC50 for CCc1nc2ccc(CN3CCN(c4ccc(C(=O)NC)nc4C)CC3)cc2[nH]c1=O : what is it?
# output 2

Reference source: ChEMBL document CHEMBL6078698
